tested on: UFH; experiment: FXa amidolytic assay (Example 10), UFH; details: read-out: Heparin FXa uM EC50; UFH 0.03 units/mL; human antithrombin, bovine Factor Xa
Documented EC50 across a set of molecules
Give the number; µM is assumed, so skip it.

Here is how some molecules turned out for EC50.
STRUCTURE: COc1ccc(NC(=O)[C@@H](CCCNC(=N)N)NC(=O)c2cc(NC(=O)[C@@H](CCCNC(=N)N)NC(=O)c3cc(NC(=O)[C@@H](CCCNC(=N)N)NC(=O)c4cc(NC(=O)[C@H](N)CCCNC(=N)N)ccc4OCC(=O)O)ccc3OC)ccc2OC)cc1C(N)=O
EC50 (µM): 0.101

STRUCTURE: COc1ccc(NC(=O)[C@@H](CCCNC(=N)N)NC(=O)c2cc(NC(=O)[C@@H](CCCNC(=N)N)NC(=O)c3cc(NC(=O)[C@@H](CCCNC(=N)N)NC(=O)c4cc(NC(=O)[C@H](N)CCCNC(=N)N)ccc4OC)ccc3OC)ccc2OCC(=O)O)cc1C(=O)N[C@H](Cc1c[nH]c2ccccc12)C(N)=O
EC50 (µM): 0.343

STRUCTURE: COc1ccc(C(=O)N[C@@H](CCCCN)C(=O)Nc2ccc(OC)c(C(=O)N[C@@H](CCCCN)C(=O)Nc3ccc(OC)c(C(=O)N[C@@H](CCCCN)C(=O)Nc4ccc(OC)c(C(N)=O)c4)c3)c2)cc1NC(=O)[C@@H](N)CCCCN
EC50 (µM): 0.199

--- query ---
Fill in: EC50 of COc1ccc(NC(=O)[C@@H](CCCNC(=N)N)NC(=O)c2cc(NC(=O)[C@@H](CCCNC(N)=O)NC(=O)c3cc(NC(=O)[C@@H](CCCNC(N)=O)NC(=O)c4cc(NC(=O)[C@H](N)CCCNC(=N)N)ccc4OC)ccc3OC)ccc2OC)cc1C(N)=O is ___
0.416

* * *

test system: HepG2 cells; test: Cytotoxicity colorimetric assay, HepG2; type: cell-based, human; set-up: concentration or dose not given beside the values; conditions: at the concentration given
EXPERIMENTAL_ENDPOINT: Cytotoxicity HepG2, percent printed in parentheses after the concentration (%)
Give the number; % is assumed, so skip it.

Here is how some compounds turned out for Cytotoxicity HepG2, percent printed in parentheses after the concentration.
STRUCTURE: COc1ccc(NC(=O)[C@H](CCCCN)NC(=O)c2cc(NC(=O)[C@H](CCCCN)NC(=O)c3cc(NC(=O)[C@H](CCCCN)NC(=O)c4cc(NC(=O)[C@@H](N)CCCCN)ccc4OC)ccc3OC)ccc2OC)cc1C(=O)N[C@@H](Cc1ccccc1)C(=O)O
RECORDED_MEASUREMENT: 60

STRUCTURE: COc1ccc(NC(=O)[C@H](CCCCN)NC(=O)c2cc(NC(=O)[C@H](CCCCN)NC(=O)c3cc(NC(=O)[C@H](CCCCN)NC(=O)c4cc(NC(=O)[C@@H](N)CCCCN)ccc4OC)ccc3OC)ccc2OC)cc1C(=O)Nc1cccc(C(=O)O)c1
RECORDED_MEASUREMENT: 50

STRUCTURE: COc1ccc(NC(=O)[C@@H](CCCNC(=N)N)NC(=O)c2cc(NC(=O)[C@@H](CCCNC(=N)N)NC(=O)c3cc(NC(=O)[C@@H](CCCNC(=N)N)NC(=O)c4cc(NC(=O)[C@H](N)CCCNC(=N)N)ccc4OC)ccc3OC)ccc2OCC(=O)O)cc1C(N)=O
RECORDED_MEASUREMENT: 50

STRUCTURE: COc1ccc(NC(=O)[C@H](CCCCN)NC(=O)c2cc(NC(=O)[C@H](CCCCN)NC(=O)c3cc(NC(=O)[C@H](CCCCN)NC(=O)c4cc(NC(=O)[C@@H](N)Cc5c[nH]c6ccccc56)ccc4OC)ccc3OC)ccc2OC)cc1C(N)=O
RECORDED_MEASUREMENT: 80

STRUCTURE: COc1ccc(NC(=O)[C@H](CCCNC(=N)N)NC(=O)c2cc(NC(=O)[C@H](CCCNC(=N)N)NC(=O)c3cc(NC(=O)[C@H](CCCNC(=N)N)NC(=O)c4cc(NC(=O)[C@@H](N)CCCNC(=N)N)ccc4OC)ccc3OC)ccc2OCC(=O)O)cc1C(=O)N[C@@H](Cc1c[nH]c2ccccc12)C(N)=O
RECORDED_MEASUREMENT: 50

STRUCTURE: COc1ccc(NC(=O)[C@@H](CCCNC(=N)N)NC(=O)c2cc(NC(=O)[C@@H](CCCNC(=N)N)NC(=O)c3cc(NC(=O)[C@@H](CCCNC(=N)N)NC(=O)c4cc(NC(C)=O)ccc4OC)ccc3OC)ccc2OC)cc1C(=O)N[C@H](Cc1c[nH]c2ccccc12)C(=O)O
RECORDED_MEASUREMENT: 50

--- query ---
Fill in: Cytotoxicity HepG2, percent printed in parentheses after the concentration of COC(=O)c1cccc(C(=O)N[C@@H](CCCCN)C(=O)Nc2ccc(OC)c(C(=O)N[C@@H](CCCCN)C(=O)Nc3ccc(OC)c(C(=O)N[C@@H](CCCCN)C(=O)Nc4ccc(OC)c(C(=O)N[C@@H](CCCCN)C(=O)Nc5ccc(OC)c(C(N)=O)c5)c4)c3)c2)c1 is ___
60

* * *

tested on: unfractionated heparin (UFH); assay: aPTT clotting assay, UFH 0.2 U/mL in plasma (Example 7); format: biochemical; details: UFH 0.2 U/mL in plasma
Documented UFH (aPTT) EC50 across a set of compounds
Give the number; µg/mL is assumed, so skip it.

COMPOUND: COc1ccc(NC(=O)[C@@H](CCCNC(=N)N)NC(=O)c2cc(NC(=O)[C@@H](CCCNC(=N)N)NC(=O)c3cc(NC(=O)[C@@H](CCCNC(=N)N)NC(=O)c4cc(NC(=O)[C@@H](C)NC(=O)CCCCNC(=N)N)ccc4OC)ccc3OC)ccc2OC)cc1C(N)=O [Compound 49]
TARGET_UNDER_TEST: unfractionated heparin (UFH)
UFH (aPTT) EC50 [µg/mL]: 1.42

COMPOUND: COc1ccc(NC(=O)[C@H](CCCCN)NC(=O)c2cc(NC(=O)[C@H](CCCCN)NC(=O)c3cc(NC(=O)[C@H](CCCCN)NC(=O)c4cc(NC(=O)[C@@H](N)CCCCN)ccc4OC)ccc3OC)ccc2OC)cc1C(=O)Nc1cccc(C(=O)O)c1 [Compound 144]
TARGET_UNDER_TEST: unfractionated heparin (UFH)
UFH (aPTT) EC50 [µg/mL]: 3.13

COMPOUND: COc1ccc(NC(=O)[C@@H](CCCNC(=N)N)NC(=O)c2cc(NC(=O)[C@@H](CCCNC(=N)N)NC(=O)c3cc(NC(=O)[C@@H](CCCNC(=N)N)NC(=O)c4cc(NC(=O)[C@H](N)CCCNC(=N)N)ccc4OCCNC(=N)N)ccc3OC)ccc2OC)cc1C(N)=O [Compound 19]
TARGET_UNDER_TEST: unfractionated heparin (UFH)
UFH (aPTT) EC50 [µg/mL]: 2.11

--- query ---
Fill in: UFH (aPTT) EC50 of COc1ccc(NC(=O)[C@@H](CCCNC(=N)N)NC(=O)c2cccc(NC(=O)[C@@H](CCCNC(=N)N)NC(=O)c3cc(NC(=O)[C@@H](CCCNC(=N)N)NC(=O)c4cc(NC(=O)[C@H](N)CCCNC(=N)N)ccc4OC)ccc3OC)c2)cc1C(N)=O [Compound 68] is ___
1.99

* * *

tested on: isolated human erythrocytes; experiment: cells; assay type: cell-based; settings: Homo sapiens, Erythrocyte, 1 h, human RBC, 1 hour at 37° C.; read-out: Hemolysis EC50
Starred links: 1 amine or outer side, 2 acyl side, 3 side chain; linkers in the order of their positions; H or OH if unused. Non-standard residues stand in square brackets, D forms with d. Residues, ends and D or L forms follow the SMILES beside them. *: point of attachment. NH(3-CONH2-4-OMe-phenyl) = COc1ccc(N*)cc1C(N)=O; 3Abz(6-OMe) = COc1ccc(N[*:1])cc1C(=O)[*:2]; X1 = O=C(O)COc1ccc(N[*:1])cc1C(=O)[*:2]
Documented EC50 across a set of compounds

Here is how some compounds turned out for EC50.
COMPOUND: COc1cc(OC)c(C(=O)N[C@H]2CC[C@H](NC(=O)c3ccc(OCCCCCNC(=N)N)cc3OCCCCCNC(=N)N)CC2)cc1C(=O)N[C@H]1CC[C@H](NC(=O)c2ccc(OCCCCCNC(=N)N)cc2OCCCCCNC(=N)N)CC1 [Compound 336]
EC50: > 1000 µg/mL

COMPOUND: COc1cc(OCC(N)=O)c(C(=O)N[C@H]2CC[C@H](NC(=O)c3cc(C(=O)NCCN(C)C)c(OCCCCCN)cc3OCCCCCN)CC2)cc1C(=O)N[C@H]1CC[C@H](NC(=O)c2cc(C(=O)NCCN(C)C)c(OCCCCCN)cc2OCCCCCN)CC1 [Compound 379]
EC50: > 1000 µg/mL

COMPOUND: COc1ccc(NC(=O)[C@H](CCCNC(=N)N)NC(=O)c2cc(NC(=O)[C@H](CCCNC(=N)N)NC(=O)c3cc(NC(=O)[C@H](CCCNC(=N)N)NC(=O)c4cc(NC(=O)[C@@H](N)CCCNC(=N)N)ccc4OC)ccc3OC)ccc2OC)cc1C(=O)N[C@@H](Cc1c[nH]c2ccccc12)C(=O)O [Compound 309]
EC50: ~100 µg/mL

COMPOUND: COc1ccc(NC(=O)[C@H](CCCCN)NC(=O)c2cc(NC(=O)[C@H](CCCCN)NC(=O)c3cc(NC(=O)[C@H](CCCCN)NC(=O)c4cc(NC(=O)[C@@H](N)Cc5c[nH]c6ccccc56)ccc4OC)ccc3OC)ccc2OC)cc1C(=O)N[C@@H](Cc1c[nH]c2ccccc12)C(=O)O [Compound 330]
EC50: 5.4 µg/mL

COMPOUND: COc1ccc(NC(=O)[C@H](CCCNC(=N)N)NC(=O)c2cc(NC(=O)[C@H](CCCNC(=N)N)NC(=O)c3cc(NC(=O)[C@H](CCCNC(=N)N)NC(=O)c4cc(NC(C)=O)ccc4OC)ccc3OCC(=O)O)ccc2OC)cc1C(=O)N[C@@H](Cc1c[nH]c2ccccc12)C(N)=O [Compound 314]
EC50: 1000 µg/mL

COMPOUND: COc1ccc(NC(=O)[C@H](CCCNC(=N)N)NC(=O)c2cc(NC(=O)[C@H](CCCNC(=N)N)NC(=O)c3cc(NC(=O)[C@H](CCCNC(=N)N)NC(=O)c4cc(NC(C)=O)ccc4OC)ccc3OC)ccc2OCC(=O)O)cc1C(=O)N[C@@H](Cc1c[nH]c2ccccc12)C(N)=O [Compound 312]
EC50: 1000 µg/mL

Fill in: EC50 of COc1ccc(NC(=O)[C@@H](CCCNC(=N)N)NC(=O)c2cc(NC(=O)[C@@H](CCCNC(=N)N)NC(=O)c3cc(NC(=O)[C@@H](CCCNC(=N)N)NC(=O)c4cc(NC(=O)[C@H](N)CCC(=O)O)ccc4OC)ccc3OC)ccc2OC)cc1C(N)=O [Compound 322] is ___
1000 µg/mL

Also, COc1ccc(NC(=O)[C@H](CCCNC(=N)N)NC(=O)c2cc(NC(=O)[C@H](CCCNC(=N)N)NC(=O)c3cc(NC(=O)[C@H](CCCNC(=N)N)NC(=O)c4cc(NC(=O)[C@@H](N)CCCNC(=N)N)ccc4OC)ccc3OCC(=O)O)ccc2OC)cc1C(=O)N[C@@H](Cc1c[nH]c2ccccc12)C(N)=O [Compound 313] please.
~100 µg/mL

Also, COc1cc(OC)c(C(=O)N[C@H]2CC[C@H](NC(=O)c3cncc(C(=O)N[C@H]4CC[C@H](NC(=O)c5cc(C(=O)NCCN)c(OC)cc5OC)CC4)c3)CC2)cc1C(=O)NCCN [Compound 400] please.
> 1000 µg/mL

Also, COc1cc(OC)c(C(=O)N[C@H]2CC[C@@H](NC(=O)c3ccc(OCCCCCNC(=N)N)cc3OCCCCCNC(=N)N)CC2)cc1C(=O)N[C@H]1CC[C@@H](NC(=O)c2ccc(OCCCCCNC(=N)N)cc2OCCCCCNC(=N)N)CC1 [Compound 380] please.
> 1000 µg/mL

Also, COc1ccc(NC(=O)[C@H](CCCCN)NC(=O)c2cc(NC(=O)[C@H](CCCCN)NC(=O)c3cc(NC(=O)[C@H](CCCCN)NC(=O)c4cc(NC(=O)[C@@H](N)CCCCN)ccc4OC)ccc3OC)ccc2OC)cc1C(=O)N[C@@H](Cc1c[nH]c2ccccc12)C(=O)O [Compound 266] please.
> 1000 µg/mL

Also, COc1ccc(NC(=O)[C@@H](CCCNC(=N)N)NC(=O)c2cc(NC(=O)[C@@H](CCCNC(=N)N)NC(=O)c3cc(NC(=O)[C@@H](CCCNC(=N)N)NC(=O)c4cc(NC(C)=O)ccc4OC)ccc3OC)ccc2OC)cc1C(N)=O [Compound 229] please.
~500 µg/mL

Also, COc1cc(OC)c(C(=O)Nc2ccc(NC(=O)c3ccc(OCCCCCN)cc3OCCCCCN)cc2)cc1C(=O)Nc1ccc(NC(=O)c2ccc(OCCCCCN)cc2OCCCCCN)cc1 [Compound 411] please.
> 1000 µg/mL

Also, COc1ccc(NC(=O)[C@H](CCCCN)NC(=O)c2cc(NC(=O)[C@H](CCCCN)NC(=O)c3cc(NC(=O)[C@H](CCCCN)NC(=O)c4cc(NC(=O)[C@H](CCCCN)NC(=O)[C@@H](N)Cc5ccccc5)ccc4OC)ccc3OC)ccc2OCC(=O)O)cc1C(N)=O [Compound 358] (H-FK[3Abz(6-OMe)]K[3Abz(6-OMe)]K[X1]K-{NH(3-CONH2-4-OMe-phenyl)}) please.
> 1000 µg/mL

Also, COc1ccc(NC(=O)[C@H](CCCCN)NC(=O)c2cc(NC(=O)[C@H](CCCCN)NC(=O)c3cc(NC(=O)[C@H](CCCCN)NC(=O)c4cc(NC(=O)[C@H](CCCCN)NC(=O)c5c[nH]c6ccccc56)ccc4OC)ccc3OC)ccc2OCC(=O)O)cc1C(N)=O [Compound 350] please.
> 1000 µg/mL
